The measurements presented in this section are drawn from paper PMC5059567.

- ASSAY OVERVIEW: Serum levels of VPA
- Type: in vivo, human
- CONDITION NOTES: oral 1,000 mg valproate daily, after two weeks of treatment; range 50–72
READOUT NAME: valproate blood levels (µg/mL)

- STRUCTURE SMILES: "CCCC(CCC)C(=O)O"
  VALUE MEASURED: 67

====

- ASSAY OVERVIEW: Pharmacokinetics of TAX in plasma (noncompartmental, HPLC-UV)
- Type: in vivo, human
- CONDITION NOTES: human, intravenous, 80 mg/m^2; plasma, first chemotherapy cycle, 10 patients per group
READOUT NAME: k el (s⁻¹)

- STRUCTURE SMILES: "CC(=O)O[C@H]1C(=O)[C@@]2(C)[C@H]([C@H](OC(=O)c3ccccc3)[C@]3(O)C[C@H](OC(=O)[C@H](O)[C@@H](NC(=O)c4ccccc4)c4ccccc4)C(C)=C1C3(C)C)[C@]1(OC(C)=O)CO[C@@H]1C[C@@H]2O"
  READOUT NAME: "k el"
  VALUE MEASURED: "9.44e-05"
